Listed below: Post-emergence herbicidal activity ALOMY (damage score 0-5) values for each entry.
Test system: ALOMY
Assay: Post-emergence herbicidal activity, glasshouse pot test; note: key: 5=total damage to plant; 0=no damage to plant
Format: in vivo
Settings: Alopecurus myosuroides; application post-emergence; rate 1000 g/Ha; evaluated after 13 days
Endpoint name: Post-emergence herbicidal activity ALOMY (damage score 0-5)

* CC1NC(=O)N(c2cc(C(F)(F)F)ccn2)C1O (stereo not drawn) [Compound A40] | 4
* CC1C(O)N(c2ccc(Cl)cn2)C(=O)N1C (single isomer, unassigned) [Compound A26] | 1
* CCOC1C(O)N(c2cc(C(C)(C)F)ccn2)C(=O)N1C (stereo not drawn) [Compound A61] | 5
* CCOC1C(O)N(c2cc(C(F)(F)F)ccn2)C(=O)N1CC (stereo not drawn) [Compound A29] | 4
* COc1ccncc1-c1cnc(N2C(=O)N(C)C(C)C2O)cc1C(F)(F)F (stereo not drawn) [Compound A23] | 4
* CCOC1C(O)N(c2cc(C(F)(F)F)c(I)cn2)C(=O)N1C (stereo not drawn) [Compound A16] | 5
* CON1C(=O)N(c2cc(C(F)(F)F)c(Cl)cn2)C(O)C1C (stereo not drawn) [Compound A50] | 5
* CCOC1C(O)N(c2cc(C(C)(F)F)ccn2)C(=O)N1C (stereo not drawn) [Compound A59] | 5
* CON1C(=O)N(c2cc(C(F)(F)F)ccn2)C(O)[C@H]1C (mixture of isomers) [Compound A4] | 5
* CCOC1C(OC(=O)[C@@H]2CCCO2)N(c2cc(C(F)(F)F)ccn2)C(=O)N1C (stereo partly drawn) [Compound A100] | 5
* CN1C(=O)N(c2cc(C(F)(F)F)ccn2)C(O)C1CO (stereo not drawn) [Compound A43] | 1
* CCC1C(O)N(c2cc(C(F)(F)F)ccn2)C(=O)N1C (stereo not drawn) [Compound A1] | 5
* COCC1C(O)N(c2cc(C(F)(F)F)ccn2)C(=O)N1C (racemic) [Compound A54] | 5
* CON1C(=O)N(c2cc(C(F)(F)F)c(Br)cn2)C(O)C1C (single isomer, unassigned) [Compound A55] | 5
* CCCOC1C(O)N(c2cc(C(F)(F)F)ccn2)C(=O)N1C (stereo not drawn) [Compound A2] | 4
* CON1C(=O)N(c2cc(C(F)(F)F)ccn2)C(O)[C@@H]1C (mixture of isomers) [Compound A3] | 5
* COCCOC1C(O)N(c2cc(C(F)(F)F)ccn2)C(=O)N1C (stereo not drawn) [Compound A45] | 2
* COC1C(O)N(c2cc(C(F)(F)F)c(I)cn2)C(=O)N1C (stereo not drawn) [Compound A18] | 5

* * *

System: SETFA
Experiment: Post-emergence herbicidal activity, glasshouse pot test; note: key: 5=total damage to plant; 0=no damage to plant
Format: in vivo
Conditions: Setaria faberi; application post-emergence; rate 1000 g/Ha; evaluated after 13 days
Endpoint name: Post-emergence herbicidal activity SETFA (damage score 0-5)

• COC1C(O)N(c2cc(C(F)(F)F)c(-c3cncnc3)cn2)C(=O)N1C (stereo not shown) = 4
• CCOC1C(O)N(c2cc(C(F)(F)F)c(Cl)cn2)C(=O)N1C (stereo not shown) = 5
• CON1C(=O)N(c2ccc(C(=O)NC(C)(C)C)cn2)C(O)C1C (stereo not shown) = 5
• CC(=O)Nc1cnc(N2C(=O)N(C)C(C)C2O)cc1C(F)(F)F (single isomer, unassigned) = 2
• CON1CC(O)N(c2cc(C(F)(F)F)ccn2)C1=O (stereo not shown) = 3
• CCOC1C(O)N(c2cc(C(F)(F)F)ccn2)C(=O)N1C (racemic) = 5
• CCCOC1C(O)N(c2cc(C(F)(F)F)ccn2)C(=O)N1C (stereo not shown) = 5
• COC(OC)C1C(O)N(c2cc(C(F)(F)F)ccn2)C(=O)N1C (stereo not shown) = 2
• CON1C(=O)N(c2cc(C(F)(F)C(F)(F)F)ccn2)C(O)C1C (stereo not shown) = 5
• CON1C(=O)N(c2ccc(C(F)(F)F)cn2)C(O)C1C (stereo not shown) = 5
• CC1NC(=O)N(c2cc(C(F)(F)Cl)ccn2)C1O (stereo not shown) = 4
• CC1C(O)N(c2cc(C(F)(F)Cl)ccn2)C(=O)N1C (stereo not shown) = 5
• C=CCOC1C(O)N(c2cc(C(F)(F)F)ccn2)C(=O)N1C (stereo not shown) = 4
• CON1C(=O)N(c2cc(Cl)c(C(=O)NC(C)(C)C)cn2)C(O)C1C (stereo not shown) = 5
• CC1C(O)N(c2cc(C(F)(F)F)ccn2)C(=O)N1C (stereo not shown) = 5
• COC[C@H]1C(O)N(c2cc(C(F)(F)F)ccn2)C(=O)N1C (stereo partly shown) = 3
• COC1C(O)N(c2cc(C(F)(F)F)ccn2)C(=O)N1C (stereo not shown) = 4
• CN1C(=O)N(c2ccc(C(F)(F)F)cn2)C(O)C1O (stereo not shown) = 2
• CC1C(O)N(c2cc(C(F)F)c(Cl)cn2)C(=O)N1C (stereo not shown) = 5

Values from patent US11608323B2
